Entry source: a melting point compilation (Tetko et al.; mined from patent text by program, amines drawn as free bases though some values may be those of a salt)

In this section we review reported melting point values for a set of molecules.

Cc1c(NC(=O)c2ccc(-c3ccccc3F)c(F)c2)ccc2cc(CN3CCCC3)cnc12 | 139 to 140 °C
CCOC(=O)c1cn(-c2cc(N(C)C(=O)OC(C)(C)C)c(F)cc2F)c2c(C)c(F)c(F)cc2c1=O | 217 to 218 °C
COc1ccccc1Sc1c(O)nc(C)[nH]c1=O | 290 °C
CCCCCCCCCCCCCCCC(=O)NC#N | 62 to 65 °C

Input: Need melting point, item O=C1NCCc2c(OCCCN3CCCCC3)cccc21
Output: 112 to 114 °C

###

METRIC: melting point

These recorded examples may help you get a feel for the data.
CC(C)(C)OC(=O)N[C@@H](Cc1ccccc1)[C@H]1CO1 | 126 °C
O=c1c2c(F)cccc2nc(CSc2ncnc3[nH]cnc23)n1-c1ccccc1Cl | 223 to 224 °C
CS(=O)(=O)c1ccc(C2=C(c3ccc(F)cc3)C(=O)OC2)cc1 | 166 to 167 °C
C=CCn1c(=S)n(C2OC(CO)C(O)C2O)c2nc(N)[nH]c(=O)c21 (stereo not given) | > 230 °C
CNc1ccc(C(=O)OC)c(F)n1 | 156 to 159 °C

We now examine a further molecule.
Input: Need melting point, item COc1ccc(C(=O)c2ccc(Oc3ccc(Cl)cc3)cn2)cc1OC
Output: 145 to 147 °C
